A collection of molecules and their measured MIC Enterococcus faecalis (GC 4552)
- System: Enterococcus sp.
- testSummary: in vitro antibacterial evaluation, MIC by broth dilution
- Type: cell-based
- statedConditions: Enterococcus faecalis (GC 4552); broth dilution, 18 hours at 35° C.
Numbered stars: 1 amine (or outer) side, 2 acyl side, 3 side chain; on linkers, the order of the positions; unused ones are H or OH. Square brackets hold non-standard residues; d marks the D form. Peptide text beside a SMILES is read from it. X5 = N=C1NCC(C(O)[C@@H](N[*:1])C(=O)[*:2])N1; X4 = N=C1NCC(C(O)[C@H](N[*:1])C(=O)[*:2])N1; Cha = N[C@@H](CC1CCCCC1)C(=O)O; dCha = N[C@H](CC1CCCCC1)C(=O)O
Form entry: value (mg/L) — number only.

Guide cases for MIC Enterococcus faecalis (GC 4552), answers given:
N=C1NCC(C(O)[C@@H]2NC(=O)[C@@H](CC3CCCCC3)NC(=O)[C@H](CC3CCCCC3)NC(=O)CNC(=O)[C@H](CO)NC(=O)[C@@H](C(O)C3CNC(=N)N3)NC2=O)N1 (stereo partly shown) [Example 58] (cyclo([Cha][dCha][X4][X5]SG))    64
CC(c1ccccc1)C1NC(=O)CNC(=O)C(CO)NC(=O)C(C(O)C2CNC(=N)N2C2OC(CO)C(O)C(O)C2O)NC(=O)C(C(O)C2CNC(=N)N2)NC(=O)C(Cc2ccc(OC3OC(CO)C(OC4OC5COC(CC6CCCCC6)OC5C(O)C4O)C(O)C3O)cc2)NC1=O (stereo not shown)    2
CCCCCCCC1OCC2OC(OC3C(CO)OC(Oc4ccc(CC5NC(=O)C(C(C)c6ccccc6)NC(=O)CNC(=O)C(CO)NC(=O)C(C(O)C6CNC(=N)N6C6OC(CO)C(O)C(O)C6O)NC(=O)C(C(O)C6CNC(=N)N6)NC5=O)cc4)C(O)C3O)C(O)C(O)C2O1 (stereo not shown)    2

Please find the next molecule below.
Query :: Entry CC(c1ccccc1)C1NC(=O)CNC(=O)C(CO)NC(=O)C(C(O)C2CNC(=N)N2C2OC(CO)C(O)C(O)C2O)NC(=O)C(C(O)C2CNC(=N)N2)NC(=O)C(Cc2ccc(OC3OC(CO)C(OC4OC5COC(CCc6ccccc6)OC5C(O)C4O)C(O)C3O)cc2)NC1=O (stereo not shown) : reported MIC Enterococcus faecalis (GC 4552) = ?
Result :: 4

---

- Tested on: Staphylococcus sp.
- testSummary: in vitro antibacterial evaluation, MIC by broth dilution
- Format: cell-based
- statedConditions: broth dilution, 18 hours at 35° C.; strain GC 4547
- From the text: Methods for in vitro Antibacterial Evaluation (Table 1) […]
measuredAttribute: MIC Coagulase Negative Staphylococcus (GC 4547) (µg/mL)
Form entry: value (µg/mL) — number only.

CCC(CC)C1OCC2OC(OC3C(CO)OC(Oc4ccc(CC5NC(=O)C(C(C)c6ccccc6)NC(=O)CNC(=O)C(CO)NC(=O)C(C(O)C6CNC(=N)N6C6OC(CO)C(O)C(O)C6O)NC(=O)C(C(O)C6CNC(=N)N6)NC5=O)cc4)C(O)C3O)C(O)C(O)C2O1 (stereo not shown) [Example 116]    1
CC(c1ccccc1)C1NC(=O)CNC(=O)C(CO)NC(=O)C(CC2CNC(=N)N2C2OC(CO)C(O)C(O)C2O)NC(=O)C(CC2CNC(=N)N2)NC(=O)C(Cc2ccc(OC3OC(CO)C(OC4OC(CO)C(OCc5ccc(OCc6ccccc6)cc5)C(O)C4O)C(O)C3O)cc2)NC1=O (stereo not shown) [Example 246a]    1
CC(c1ccccc1)C1NC(=O)CNC(=O)C(CO)NC(=O)C(C(O)C2CNC(=N)N2C2OC(CO)C(O)C(O)C2O)NC(=O)C(C(O)C2CNC(=N)N2)NC(=O)C(Cc2ccc(OC3OC(CO)C(OC4OC5COC(c6ccc7c(c6)OCCO7)OC5C(O)C4O)C(O)C3O)cc2)NC1=O (stereo not shown) [Example 149]    1
Cc1ccc(COCC2OC(OC3C(CO)OC(Oc4ccc(CC5NC(=O)C(C(C)c6ccccc6)NC(=O)CNC(=O)C(CO)NC(=O)C(C(O)C6CNC(=N)N6C6OC(CO)C(O)C(O)C6O)NC(=O)C(C(O)C6CNC(=N)N6)NC5=O)cc4)C(O)C3O)C(O)C(O)C2O)cc1 (stereo not shown) [Example 234]    1

Query :: Entry CC(=O)OCC1OC(OC2C(CO)OC(Oc3ccc(CC4NC(=O)C(C(C)c5ccccc5)NC(=O)CNC(=O)C(CO)NC(=O)C(C(O)C5CNC(=N)N5C5OC(CO)C(O)C(O)C5O)NC(=O)C(C(O)C5CNC(=N)N5)NC4=O)cc3)C(O)C2O)C(O)C(OC(=O)CCC(C)C)C1O (stereo not shown) [Example 270b] : reported MIC Coagulase Negative Staphylococcus (GC 4547) = ?
Result :: 4

Query :: Can you handle COC1CCC2(C)C(CCC3C2CCC2(C)C(C(C)CCC4OCC5OC(OC6C(CO)OC(Oc7ccc(CC8NC(=O)C(C(C)c9ccccc9)NC(=O)CNC(=O)C(CO)NC(=O)C(C(O)C9CNC(=N)N9C9OC(CO)C(O)C(O)C9O)NC(=O)C(C(O)C9CNC(=N)N9)NC8=O)cc7)C(O)C6O)C(O)C(O)C5O4)CCC32)C1 (stereo not shown) [Example 130] next?
Result :: 32

Query :: Can you handle CC(c1ccccc1)C1NC(=O)CNC(=O)C(CO)NC(=O)C(C(O)C2CNC(=N)N2C2OC(CO)C(O)C(O)C2O)NC(=O)C(C(O)C2CNC(=N)N2)NC(=O)C(Cc2ccc(OC3OC(CO)C(OC4OC(COCc5cccs5)C(O)C(O)C4O)C(O)C3O)cc2)NC1=O (stereo not shown) [Example 244] next?
Result :: 4

---

- System: Staphylococcus sp.
- testSummary: in vitro antibacterial evaluation, MIC by broth dilution
- Assay type: cell-based
- statedConditions: broth dilution, 18 hours at 35° C.; strain GC 4546
measuredAttribute: MIC Staphylococcus haemolyticus (GC 4546) (µg/mL)
Form entry: value (µg/mL) — number only.

Guide cases for MIC Staphylococcus haemolyticus (GC 4546), answers given:
CC(c1ccccc1)C1NC(=O)CNC(=O)C(CO)NC(=O)C(CC2CNC(=N)N2C2OC(CO)C(O)C(O)C2O)NC(=O)C(CC2CNC(=N)N2)NC(=O)C(Cc2ccc(OC3OC(CO)C(OC4OC(CO)C(O)C(OCc5ccc(OCc6ccccc6)cc5)C4O)C(O)C3O)cc2)NC1=O (stereo not shown) [Example 246b]    128
CCCCOC(=O)CCC1OCC2OC(OC3C(CO)OC(Oc4ccc(CC5NC(=O)C(C(C)c6ccccc6)NC(=O)CNC(=O)C(CO)NC(=O)C(C(O)C6CNC(=N)N6C6OC(CO)C(O)C(O)C6O)NC(=O)C(C(O)C6CNC(=N)N6)NC5=O)cc4)C(O)C3O)C(O)C(O)C2O1 (stereo not shown)    1
CC(c1ccccc1)C1NC(=O)CNC(=O)C(CO)NC(=O)C(C(O)C2CNC(=N)N2C2OC(CO)C(O)C(O)C2O)NC(=O)C(C(O)C2CNC(=N)N2)NC(=O)C(Cc2ccc(OC3OC(CO)C(OC4OC(CO)C(O)C5OC(CC67CC8CC(CC(C8)C6)C7)OC45)C(O)C3O)cc2)NC1=O (stereo not shown)    2
COC1CCC2(C)C(CCC3C2CCC2(C)C(C(C)CCC4OCC5OC(OC6C(CO)OC(Oc7ccc(CC8NC(=O)C(C(C)c9ccccc9)NC(=O)CNC(=O)C(CO)NC(=O)C(C(O)C9CNC(=N)N9C9OC(CO)C(O)C(O)C9O)NC(=O)C(C(O)C9CNC(=N)N9)NC8=O)cc7)C(O)C6O)C(O)C(O)C5O4)CCC32)C1 (stereo not shown)    32
COc1ccc(COCC2OC(OC3C(CO)OC(Oc4ccc(CC5NC(=O)C(C(C)c6ccccc6)NC(=O)CNC(=O)C(CO)NC(=O)C(C(O)C6CNC(=N)N6C6OC(CO)C(O)C(O)C6O)NC(=O)C(C(O)C6CNC(=N)N6)NC5=O)cc4)C(O)C3O)C(O)C(O)C2O)cc1F (stereo not shown)    1

Please find the next compound below.
Query :: Entry COc1cc(C2OCC3OC(OC4C(CO)OC(Oc5ccc(CC6NC(=O)C(C(C)c7ccccc7)NC(=O)CNC(=O)C(CO)NC(=O)C(C(O)C7CNC(=N)N7C7OC(CO)C(O)C(O)C7O)NC(=O)C(C(O)C7CNC(=N)N7)NC6=O)cc5)C(O)C4O)C(O)C(O)C3O2)ccc1[N+](=O)[O-] (stereo not shown) : reported MIC Staphylococcus haemolyticus (GC 4546) = ?
Result :: 1

---

- Test system: Staphylococcus sp.
- testSummary: in vitro antibacterial evaluation, MIC by broth dilution
- Type: cell-based
- statedConditions: strain GC 4547; broth dilution, 18 hours at 35° C.
measuredAttribute: MIC Coagulase Negative Staphylococcus (GC 4547) (µg/mL)
Form entry: value (µg/mL) — number only.

CC(c1ccccc1)C1NC(=O)CNC(=O)C(CO)NC(=O)C(C(O)C2CNC(=N)N2C2OC(CO)C(O)C(O)C2O)NC(=O)C(C(O)C2CNC(=N)N2)NC(=O)C(Cc2ccc(OC3OC(CO)C(OC4OC5COC(c6ccc(C(=O)c7ccc(I)cc7)cc6)OC5C(O)C4O)C(O)C3O)cc2)NC1=O (centres unmarked)    2

Please find the next molecule below.
Query :: Entry CC(c1ccccc1)C1NC(=O)CNC(=O)C(CO)NC(=O)C(C(O)C2CNC(=N)N2C2OC(CO)C(O)C(O)C2O)NC(=O)C(C(O)C2CNC(=N)N2)NC(=O)C(Cc2ccc3oc(SCc4ccc5ccccc5c4)nc3c2)NC1=O (centres unmarked) : reported MIC Coagulase Negative Staphylococcus (GC 4547) = ?
Result :: 4
